Measured values drawn from PubChem BioAssay for this set.

For each record, write down the corresponding inhibition.
- EXPERIMENTAL SYSTEM: Dual specificity protein phosphatase 6 (Homo sapiens)
- ASSAY INFO: DUSP6 inhibitors restoring Erk phosphorylation by chemical complementation, primary imaging in DUSP6-transfected HeLa (AID 609);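 note: phospho-Erk level distribution per well compared with pooled transfected vehicle control wells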
- ASSAY CONDITIONS: HeLa MKP-3 transfected, phospho-Erk imaging KS statistic; at 10 µM; stronger effect = higher value; cells stimulated with TPA for 15 min
Numeric answer only, unit % assumed.

Query string: Any idea what inhibition was measured for COc1ccc(-c2cn3ccsc3n2)cc1 ?
Result string: -8.95

Query string: Same thing, different molecule: COc1ccc(-n2ccc(=O)c3c2CCCC3=O)cc1
Result string: -3.97

Query string: Same thing, different molecule: Cc1cc(C)n(-c2nnc(C)n2/N=C/c2ccco2)n1
Result string: 20.2

Query string: Same thing, different molecule: c1ccc(-c2ccc(C(c3ccccc3)n3ccnc3)cc2)cc1 (configuration not stated)
Result string: 16.8

Query string: Same thing, different molecule: CCCSc1nnc2n(C)c(=O)c3c4c(sc3n12)CCC4
Result string: 9.42

Query string: Same thing, different molecule: CC(=O)c1cc(C#N)c(SCc2ccncc2)nc1C
Result string: -2.29

Query string: Same thing, different molecule: Cc1cc(C)n(Cc2ccc(C(=O)NCCC3=CCCCC3)o2)n1
Result string: 8.76

Query string: Same thing, different molecule: Cc1cc(-c2cc(-c3ccc(Cl)cc3)nc(N)c2C#N)co1
Result string: 7.01

Query string: Same thing, different molecule: C1CNCCNCCNCCN1
Result string: 10.2

Query string: Same thing, different molecule: COc1ccc2c(c1OC)C(=O)N1c3ccccc3C(=O)N(c3ccccc3)C21 (configuration not stated)
Result string: 2.46

Query string: Same thing, different molecule: Oc1c(I)cc(I)c2cccnc12
Result string: -11.9

Query string: Same thing, different molecule: C[C@]12CCC(=O)C=C1CC[C@@H]1[C@@H]2[C@@H](O)C[C@@]2(C)[C@H]1CC[C@]2(O)C(=O)CO
Result string: 5.42

====

- ASSAY INFO: inhibitors of TNFa-induced NFkB p65 translocation, primary screen, imaging, HUVEC, MLSMR starter and 10KST1 sets (AID 438);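 note: compound added about 3h40 before a 20 min TNFalpha stimulation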
- ASSAY CONDITIONS: HUVEC TNFa-induced p65 nuclear translocation; measured here: nuclei count (cytotoxicity indicator), at 2.08 µM
For each record, write down the corresponding cell count.

Query string: Any idea what cell count was measured for O=c1[nH]cnc2cc(-c3ccccc3)sc12 ?
Result string: 526

Query string: Same thing, different compound: Cn1nccc1C(=O)Nc1ccccc1C(=O)O
Result string: 640

Query string: Same thing, different compound: C[C@H](CCC(=O)O)[C@H]1CC[C@H]2[C@@H]3C(=O)C[C@@H]4CC(=O)CC[C@]4(C)[C@H]3CC(=O)[C@]12C
Result string: 606

Query string: Same thing, different compound: CC(C)CC(NC(=O)OC(C)(C)C)C(=O)NCc1ccccc1 (stereo not given)
Result string: 626

Query string: Same thing, different compound: Fc1ccc(-c2cnc[nH]2)cc1
Result string: 501

Query string: Same thing, different compound: COc1ccc(OC)c(NC(=O)CSC2=C(C#N)C(c3ccco3)C3=C(CCCC3=O)N2)c1 (stereo not given)
Result string: 356

Query string: Same thing, different compound: O=C(c1cccc2ccccc12)N1CCC(N2CCN(c3ccccc3)CC2)CC1
Result string: 373

Query string: Same thing, different compound: CCC1(C)Cc2c(sc3c2c(=O)n(C)c2nnc(SCc4ccc5c(c4)OCO5)n32)CO1 (stereo not given)
Result string: 497

Query string: Same thing, different compound: O=C(NCc1ccco1)c1cnn2c1NC(c1ccccc1)CC2C(F)(F)F (stereo not given)
Result string: 479

Query string: Same thing, different compound: CCCCNC(=O)c1cc2n(n1)C(C(F)(F)F)CC(c1ccccc1)N2 (stereo not given)
Result string: 519
